meta.source: the supplement of paper PMC10065799

# experimental_target: FGFR1 (UniProt P11362)
# Sequence (P11362 whole entry, looked up): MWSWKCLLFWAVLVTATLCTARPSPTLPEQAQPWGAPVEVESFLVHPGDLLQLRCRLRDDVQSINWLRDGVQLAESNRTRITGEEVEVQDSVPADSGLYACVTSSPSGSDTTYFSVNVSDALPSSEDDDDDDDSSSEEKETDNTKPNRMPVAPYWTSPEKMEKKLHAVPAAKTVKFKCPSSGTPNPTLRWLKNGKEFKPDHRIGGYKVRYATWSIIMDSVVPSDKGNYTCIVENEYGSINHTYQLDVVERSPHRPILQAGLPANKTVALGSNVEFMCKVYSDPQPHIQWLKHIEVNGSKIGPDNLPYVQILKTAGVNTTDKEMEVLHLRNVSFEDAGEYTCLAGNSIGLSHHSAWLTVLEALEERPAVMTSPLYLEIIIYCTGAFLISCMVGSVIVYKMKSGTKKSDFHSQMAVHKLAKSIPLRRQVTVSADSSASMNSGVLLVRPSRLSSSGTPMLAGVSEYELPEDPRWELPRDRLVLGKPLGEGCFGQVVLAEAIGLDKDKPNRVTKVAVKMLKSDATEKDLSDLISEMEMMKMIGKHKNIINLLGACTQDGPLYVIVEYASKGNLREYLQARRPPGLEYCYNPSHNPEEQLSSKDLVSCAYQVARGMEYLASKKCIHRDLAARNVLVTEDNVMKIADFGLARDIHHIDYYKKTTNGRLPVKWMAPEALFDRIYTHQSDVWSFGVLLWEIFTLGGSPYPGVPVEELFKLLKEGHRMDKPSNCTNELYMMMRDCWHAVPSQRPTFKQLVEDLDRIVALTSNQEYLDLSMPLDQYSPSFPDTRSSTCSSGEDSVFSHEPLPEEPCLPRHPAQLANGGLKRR
# experimental_details: phosphorylation enrichment, bacterial display (enrichment ratio); higher = better substrate or ligand; peptides without Tyr show the background;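 further: 11-residue human phosphosite peptides and single-mutation variants displayed on the E. coli surface, counted by deep sequencing, each peptide's frequency after selection divided by its frequency in the unselected input library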;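 further: frequency after pTyr selection over input frequency; kinase dosed for 20-30% of maximal phosphorylation in three min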
reported_endpoint: phosphorylation enrichment

Prompt line: Query (sequence): AAFNRYDQERF [CDC73_Y293_YF] ; field requested: phosphorylation enrichment
Response line: 0.394

====

# experimental_target: EPHB2 (UniProt P29323)
# Sequence (P29323 whole entry, looked up): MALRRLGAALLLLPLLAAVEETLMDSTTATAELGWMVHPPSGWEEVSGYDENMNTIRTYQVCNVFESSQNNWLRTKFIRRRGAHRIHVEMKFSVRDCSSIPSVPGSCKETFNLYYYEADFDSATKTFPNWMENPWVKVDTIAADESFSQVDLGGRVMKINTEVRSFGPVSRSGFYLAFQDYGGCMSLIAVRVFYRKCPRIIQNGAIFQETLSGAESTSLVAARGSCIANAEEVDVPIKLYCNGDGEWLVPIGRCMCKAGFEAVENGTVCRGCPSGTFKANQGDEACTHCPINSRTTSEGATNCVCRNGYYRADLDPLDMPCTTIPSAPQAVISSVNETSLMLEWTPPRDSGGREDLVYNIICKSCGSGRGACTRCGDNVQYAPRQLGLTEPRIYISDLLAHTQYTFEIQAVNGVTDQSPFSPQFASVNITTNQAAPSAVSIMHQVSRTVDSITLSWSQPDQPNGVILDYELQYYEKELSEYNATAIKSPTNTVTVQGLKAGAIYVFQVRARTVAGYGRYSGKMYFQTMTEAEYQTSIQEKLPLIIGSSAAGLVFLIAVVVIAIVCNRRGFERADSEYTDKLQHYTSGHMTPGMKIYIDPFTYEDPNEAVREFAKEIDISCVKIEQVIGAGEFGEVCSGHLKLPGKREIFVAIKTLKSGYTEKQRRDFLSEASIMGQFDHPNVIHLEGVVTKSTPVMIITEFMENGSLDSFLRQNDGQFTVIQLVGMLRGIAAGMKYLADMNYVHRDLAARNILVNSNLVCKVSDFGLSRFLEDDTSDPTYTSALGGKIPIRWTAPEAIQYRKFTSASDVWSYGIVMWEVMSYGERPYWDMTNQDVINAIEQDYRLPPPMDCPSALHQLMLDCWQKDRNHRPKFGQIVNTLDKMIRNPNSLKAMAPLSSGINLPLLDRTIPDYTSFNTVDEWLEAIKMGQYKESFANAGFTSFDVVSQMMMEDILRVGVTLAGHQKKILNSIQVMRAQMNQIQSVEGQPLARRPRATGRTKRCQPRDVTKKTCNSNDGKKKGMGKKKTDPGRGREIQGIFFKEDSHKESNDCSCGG
# experimental_details: phosphorylation enrichment, bacterial display (enrichment ratio); higher = better substrate or ligand; peptides without Tyr show the background
Measured phosphorylation enrichment determines class: low-valued (below 0.5), mid-valued (0.5 to below 0.6), high-valued (0.6 or more)

sequence_text="MVIPNYSSRTE [UROC1_Y185]" group=low-valued
sequence_text="DYNPNYCFAGK [ALK_Y1096]" group=high-valued
sequence_text="NTGLEYIKFTW [HRH1_Y386_D385E]" group=high-valued

Prompt line: State the class of the sequence shown: ALAHKYHGGGG [HBB_Y146]
Response line: low-valued

Prompt line: And EMQAAYQKVVA [HBD_Y131_Q126E] ?
Response line: low-valued

Prompt line: And AKNKDYMSIIR [GNE_Y197] ?
Response line: mid-valued
